Taken from patent US20140135310A1.

This section presents compounds with their documented inhibition at 1 µM values.
Molecular target: 5-HT1A receptor (rat hippocampus) (Rattus norvegicus, UniProt P19327)
Construct: hippocampus; from tissue; host or cells: rat hippocampus
Sequence (P19327 1-422): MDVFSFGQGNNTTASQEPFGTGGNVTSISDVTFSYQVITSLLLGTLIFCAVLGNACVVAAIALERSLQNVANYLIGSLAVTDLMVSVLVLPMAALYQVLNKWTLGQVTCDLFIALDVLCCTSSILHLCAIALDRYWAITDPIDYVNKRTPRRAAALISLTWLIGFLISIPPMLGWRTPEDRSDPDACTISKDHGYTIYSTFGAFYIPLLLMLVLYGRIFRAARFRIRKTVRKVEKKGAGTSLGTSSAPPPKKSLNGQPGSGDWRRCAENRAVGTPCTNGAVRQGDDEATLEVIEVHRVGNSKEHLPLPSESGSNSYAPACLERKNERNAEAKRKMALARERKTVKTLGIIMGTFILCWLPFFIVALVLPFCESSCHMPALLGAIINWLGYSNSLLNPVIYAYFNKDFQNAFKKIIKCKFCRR
Assay: Radioligand binding assay, serotoninergic 5-HT1A receptors;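 also: test compound at 1 µM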
Details: binding assay result in %, Table 5a
Use % as the unit, but write only the number.

Here are 3 compounds together with their reported answers.
- compound: "Cc1ccc(S(=O)(=O)NC2CCN(CCCc3noc4cc(F)ccc34)C2)cc1 (stereo not shown)"
  number: 11
- compound: "O=S(=O)(NC1CCN(CCCc2c[nH]c3ccc(Cl)cc23)C1)c1ccc(Cl)cc1 (stereo not shown)"
  number: 102
- compound: "CC1(C)Cc2cccc(OCCN3CCC(CNS(=O)(=O)c4cccc(O)c4)C3)c2O1 (stereo not shown)"
  number: 81

Please examine the following record next.
Please list inhibition at 1 µM recorded for the compound `Cc1cc(S(=O)(=O)N[C@H]2CCN(CCCc3noc4cc(F)ccc34)C2)c(C)s1`
49
